As shown below, each of these compounds has a reported GI50 value.
test system: LOX IMVI; assay: NCI tumour cell line growth inhibition, 48 h
Structures can show the parent of a compound that is named as a salt. Calls of active or inactive are those of the source. Cut-off read from the data, not from the text of the source: active = GI50 up to about 1.1 µM and inactive = higher.
assay_metric: GI50

COC(=O)[C@@]1(C)C(=O)CC[C@@H]1C=O ... > 100 µM (inactive)
Cc1nccc2c1[nH]c1cc(O)ccc12 [HARMOL HYDROCHLORIDE] ... 45.6 µM (inactive)
O=C1OS2(OCc3cccc4cccc2c34)c2ccccc21 (stereo not drawn) ... > 100 µM (inactive)
CC(=O)Nc1ccc(-c2nc3ccccc3s2)cc1O ... 41.3 µM (inactive)
CC(=O)OC[C@@]1(C)[C@@H]2[C@@H]3[C@@]4(CO[C@]3(C)C(=O)[C@@]3(OC(C)=O)C[C@H](C)[C@H](OC(C)=O)[C@@H]3[C@H]4OC(C)=O)[C@H](OC(=O)c3ccccc3)C[C@@H]21 ... 79.6 µM (inactive)
O=C(C#Cc1cnc(O)nc1O)c1ccccc1 ... 4.42 µM (inactive)
CC(C)CCC[C@@H](C)C1CCC2[C@@H]3CCC4C[C@@H](NS(C)(=O)=O)CC[C@]4(C)C3CC[C@@]21C (stereo partly drawn) ... > 100 µM (inactive)
N#Cc1c(O)n(-c2ccccc2)c(=O)c2c(N)n[nH]c12 ... 21.5 µM (inactive)
Nc1sccc1S(=O)(=O)c1ccsc1N ... > 100 µM (inactive)
COC1=C(C)C(=O)C2=C(C1=O)[C@@H]1[C@@H]3Cc4c(OC(=O)CO)c(C)c(OC)c(O)c4[C@H](CNC(=O)C(C)=O)N3[C@@H](C#N)[C@H](C2)N1C ... < 0.01 µM (active)
OCCc1ccsc1-c1sc(-c2cc(CCO)c(-c3sccc3CCO)s2)cc1CCO ... 5.45 µM (inactive)
CCOC(=O)c1cc(C2CCN(CC(C)CC)C2=S)c(C(=O)/C=C(/C)N)[nH]1 (stereo not drawn) ... > 50 µM (inactive)
Cc1cc(C)c(C2=NOC(c3ccccc3)(c3cc(=O)n(-c4ccccc4)s3)O2)c(C)c1 (stereo not drawn) ... 15.8 µM (inactive)
CCO/C(Cc1ccc(Cl)cc1)=N/NC(N)=S ... > 100 µM (inactive)
CC(C)(C)OC(=O)N1C/C=C\C(=O)C2(OCCO2)c2ccccc21 ... 16.7 µM (inactive)
CC1=NC2(CCCCC2)N(Cl)C(=O)C1SC#N (stereo not drawn) ... 10.7 µM (inactive)
Nc1nc(Cl)cc(OCC2(CO)CC=CC2)n1 ... > 100 µM (inactive)
O=C1/C(=C/c2ccc(O)cc2)CCCC1CN1CCCCC1 (stereo not drawn) ... 1.56 µM (inactive)
Cn1c2cc(O)cc(O)c2c(=O)c2c([N+](=O)[O-])cccc21 ... > 100 µM (inactive)
O=C1C=CC2(C=C1)C[C@H](NC(=O)OCc1ccccc1)C(=O)O2 ... 9.93 µM (inactive)
CN(C)CCCC12CCCCC1=Nc1ccccc12 (stereo not drawn) ... > 100 µM (inactive)
CC1CN(CCO)CCN1c1ccccc1 (stereo not drawn) ... > 100 µM (inactive)
CC(=O)OC1COC(N2C(=O)C(=O)c3ccccc32)C(OC(C)=O)C1OC(C)=O (stereo not drawn) ... > 100 µM (inactive)
CCC1(CC)CC(=NNS(=O)(=O)c2ccc(C)cc2)C1 ... > 100 µM (inactive)
COc1cc(CNc2nc3c(NC(C)=O)cc(C(F)(F)F)cc3nc2-c2ccccc2)cc(OC)c1OC ... > 100 µM (inactive)
CCC(N)(C(=O)O)C(C)C (stereo not drawn) ... > 100 µM (inactive)
COc1ccc(C(=C2C=CC=C2)c2ccc(OC)cc2)cc1 ... 17.2 µM (inactive)
COc1ccc(/C=C2\CCC(CCN(C)C)(C3=CCCC3)C2=O)cc1Br (stereo not drawn) ... 4.06 µM (inactive)
O=C(O)[C@@H]1NC[C@H]2C(Br)=NO[C@H]21 ... > 100 µM (inactive)
CC(=O)C1=CN=C2C(=O)N(c3ccccc3)N(C)C12C (stereo not drawn) ... > 100 µM (inactive)
O=C1CC[C@@H](NC(=O)Cc2ccccc2)C(=O)N1 ... > 100 µM (inactive)
O=S1(=O)N=C(NCc2c[nH]c3ccccc23)N(c2ccccc2)c2ccncc21 ... > 100 µM (inactive)
O=C1c2ccccc2C(=O)c2c(NCCNCCO)ccc(O)c21 ... 1.51 µM (inactive)
Nc1ccn(C2OC(CO)C(O)C2O)c(=O)c1 (stereo not drawn) ... 143 µM (inactive)
CCOC(=O)C1=CN=C2C(=O)N(c3ccccc3)N(C)C2(C)C1=N (stereo not drawn) ... > 100 µM (inactive)
Oc1[nH]c(Nc2cccc(Br)c2)nc2ncnc1-2 ... > 100 µM (inactive)
O=c1c(C(c2ccc3ccccc3c2)c2c(O)oc3ccccc3c2=O)c(O)oc2ccccc12 ... 34.6 µM (inactive)
CC(=O)O[C@H]1[C@@H](N2CCCCC2)C[C@H]2[C@@H]3CC=C4C[C@@H](N5CCCC5)CC[C@]4(C)[C@H]3CC[C@@]21C ... 35.6 µM (inactive)
O=C1CC(C(O)(C(F)(F)F)C(F)(F)Cl)CCC1C(O)(C(F)(F)F)C(F)(F)Cl (stereo not drawn) ... > 10 µM (inactive)
N#Cc1c(Cl)cc(C#N)n2c1nc1ccccc12 ... 2.5 µM (inactive)
C=CC(OC(=O)C(C)C)c1ccc(OC(=O)C(C)C)cc1 (stereo not drawn) ... 4.47 µM (inactive)
COC(=O)N/N=C/c1oc(-c2ccccc2)c(-c2ccccc2)c1[N+](=O)[O-] ... > 100 µM (inactive)
CCCC(C)NC1=C(NC(C)=O)C(=O)c2ccccc2C1=O (stereo not drawn) ... > 100 µM (inactive)
